- Test: Maximum kinetic aqueous solubility
- Type: physicochemical
- Cond: phosphate buffer, pH 7.4, aqueous buffer, kinetic from dmso stock; read-out: solubility
Property Name: solubility at 90 min

>>> reported_measurement("COc1ccc(/C=C2\\N=C(C)N(c3ccc(CC(=O)NCc4ccccc4)cc3)C2=O)cc1 [Compound 4c]")
"~20 µM"

====

In this section we review reported melting point values for a set of compounds.
Property Name: melting point

>>> reported_measurement("CC1=N/C(=C\\c2ccc(Cl)cc2)C(=O)N1c1ccc(CC(=O)NCc2ccccc2)cc1")
"209 to 211 °C"
>>> reported_measurement("O=C(Cc1ccc(N2C(=O)/C(=C/c3ccc(Cl)cc3)N=C2c2ccccc2)cc1)NCc1ccccc1")
"218 to 220 °C"
>>> reported_measurement("COc1cc(/C=C2\\N=C(c3ccccc3)N(c3ccc(CC(=O)NCc4ccccc4)cc3)C2=O)ccc1O")
"109 to 112 °C"
>>> reported_measurement("COc1ccc(C=C(NC(C)=O)C(=O)Nc2ccc(CC(=O)NCc3ccccc3)cc2)cc1 (stereo in doubt)")
"189 to 200 °C"
>>> reported_measurement("CC1=N/C(=C\\c2ccccc2)C(=O)N1c1ccc(CC(=O)NCc2ccccc2)cc1")
"164 to 165 °C"
>>> reported_measurement("O=C(Cc1ccc(N2C(=O)/C(=C/c3ccccc3)N=C2c2ccccc2)cc1)NCc1ccccc1")
"218 to 219 °C"
>>> reported_measurement("COc1ccc(/C=C2\\N=C(c3ccccc3)N(c3ccc(CC(=O)NCc4ccccc4)cc3)C2=O)cc1")
"193 °C"

====

- Assay Target: UniProtKB P11712
- Sequence (P11712 whole entry): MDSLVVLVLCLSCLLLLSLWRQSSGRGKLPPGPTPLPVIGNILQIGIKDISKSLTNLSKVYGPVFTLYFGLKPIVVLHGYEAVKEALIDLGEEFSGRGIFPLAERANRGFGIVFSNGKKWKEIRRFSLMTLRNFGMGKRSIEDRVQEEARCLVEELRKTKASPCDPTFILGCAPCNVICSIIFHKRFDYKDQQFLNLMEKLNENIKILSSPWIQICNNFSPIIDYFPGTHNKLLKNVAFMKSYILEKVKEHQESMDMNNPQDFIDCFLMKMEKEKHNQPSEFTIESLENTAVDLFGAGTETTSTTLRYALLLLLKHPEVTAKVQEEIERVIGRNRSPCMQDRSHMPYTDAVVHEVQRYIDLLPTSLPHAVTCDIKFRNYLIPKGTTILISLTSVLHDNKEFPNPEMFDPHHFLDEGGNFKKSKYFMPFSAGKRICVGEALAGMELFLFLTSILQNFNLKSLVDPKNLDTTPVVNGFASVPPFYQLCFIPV
pIC50: −log10 of the molar value.
Property Name: pIC50

>>> reported_measurement("COc1ccc(/C=C2\\N=C(C)N(c3ccc(CC(=O)NCc4ccccc4)cc3)C2=O)cc1")
"≤ 5.00"

====

- Assay Target: human cytochrome P450 2D6 (Homo sapiens, UniProt P10635)
- Sequence (P10635 whole entry): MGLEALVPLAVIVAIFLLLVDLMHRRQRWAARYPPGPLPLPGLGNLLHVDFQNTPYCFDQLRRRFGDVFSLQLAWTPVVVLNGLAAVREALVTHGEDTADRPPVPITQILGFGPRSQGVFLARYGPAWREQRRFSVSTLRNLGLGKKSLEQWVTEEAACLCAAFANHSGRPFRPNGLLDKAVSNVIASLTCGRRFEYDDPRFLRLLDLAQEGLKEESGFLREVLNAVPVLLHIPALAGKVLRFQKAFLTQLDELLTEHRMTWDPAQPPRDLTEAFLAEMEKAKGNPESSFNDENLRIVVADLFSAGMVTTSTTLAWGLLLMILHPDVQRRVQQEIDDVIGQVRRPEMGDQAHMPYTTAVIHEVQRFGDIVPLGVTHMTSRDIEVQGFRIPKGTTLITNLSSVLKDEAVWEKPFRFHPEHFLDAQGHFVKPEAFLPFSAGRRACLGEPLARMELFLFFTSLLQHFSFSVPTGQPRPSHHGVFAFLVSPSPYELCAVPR
pIC50: −log10 of the molar value.
Property Name: pIC50

>>> reported_measurement("COc1ccc(/C=C2\\N=C(C)N(c3ccc(CC(=O)NCc4ccccc4)cc3)C2=O)cc1")
"≤ 5.00"

====

- System: NB4 leukemia cell line
- Test: CellTiter-Blue cell viability assay
- Format: cell-based
- Cond: Homo sapiens, NB-4, 48 h
Property Name: IC50 (nM)

>>> reported_measurement("COc1ccc(/C=C2\\N=C(C)N(c3ccc(CC(=O)NCc4ccccc4)cc3)C2=O)cc1")
275

====

In this section we review reported IC50 values for a set of compounds.
- Test system: MCF7 breast cancer cell line
- Test: SRB cytotoxicity assay
- Format: cell-based, human
- Cond: Homo sapiens, MCF7, 72 h, MCF7, SRB, 72 h; read-out: IC50 ± SEM MCF7
Property Name: IC50

>>> reported_measurement("COc1cc(/C=C2\\N=C(C)N(c3ccc(CC(=O)NCc4ccccc4)cc3)C2=O)ccc1O [Compound 4d]")
"9.48 µM"
>>> reported_measurement("CC1=N/C(=C\\c2ccc(Cl)cc2)C(=O)N1c1ccc(CC(=O)NCc2ccccc2)cc1 [Compound 4b]")
"20.8 µM"
>>> reported_measurement("O=C(Cc1ccc(N2C(=O)/C(=C/c3ccc(Cl)cc3)N=C2c2ccccc2)cc1)NCc1ccccc1 [Compound 4f]")
"44.2 µM"
>>> reported_measurement("O=C(Cc1ccc(N2C(=O)/C(=C/c3ccccc3)N=C2c2ccccc2)cc1)NCc1ccccc1 [Compound 4e]")
"34.9 µM"
>>> reported_measurement("CC1=N/C(=C\\c2ccccc2)C(=O)N1c1ccc(CC(=O)NCc2ccccc2)cc1 [Compound 4a]")
"11.6 µM"
>>> reported_measurement("COc1ccc(/C=C2\\N=C(c3ccccc3)N(c3ccc(CC(=O)NCc4ccccc4)cc3)C2=O)cc1 [Compound 4g]")
"32.1 µM"
>>> reported_measurement("COc1cc(/C=C2\\N=C(c3ccccc3)N(c3ccc(CC(=O)NCc4ccccc4)cc3)C2=O)ccc1O [Compound 4h]")
"35.1 µM"
>>> reported_measurement("COc1ccc(/C=C2\\N=C(C)N(c3ccc(CC(=O)NCc4ccccc4)cc3)C2=O)cc1 [Compound 4c]")
"1.14 µM"
>>> reported_measurement("COc1ccc(C=C(NC(C)=O)C(=O)Nc2ccc(CC(=O)NCc3ccccc3)cc2)cc1 (stereo in doubt) [Compound 5]")
"44.3 µM"
